targetOfAssay: B anthracis DHFR (Bacillus anthracis, UniProt Q81R22)
Sequence (Q81R22 1-162): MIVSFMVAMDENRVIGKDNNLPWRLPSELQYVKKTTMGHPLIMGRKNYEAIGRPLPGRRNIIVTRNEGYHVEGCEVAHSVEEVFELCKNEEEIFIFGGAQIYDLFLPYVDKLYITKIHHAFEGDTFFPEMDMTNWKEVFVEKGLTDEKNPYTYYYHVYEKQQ
measuredAttribute: Ki

CCCC1c2ccccc2C=NN1C(=O)/C=C/c1cc(Cc2cnc(N)nc2N)cc(OCc2ccc(C(F)(F)F)cc2)c1OC (racemic) ... > 2.2 µM
